PROTOCOL_TEXT: soluble on expression in E. coli; label from the status in PepcDB or PDB records
RESULT_TYPE: soluble on expression in E. coli

# annotated cases, reported soluble on expression in E. coli shown
* QMTLTELRAFLDQMNNLPCAMHQIGDVKGVLEQVEAYQAEAREALASLPSSPGLLQSLLERGRQLGVEVPEAQQLQRQVEQARWLDEVKRTLAPSARRGTLAVMRGLLVAGASVAPSPAVDKAQAELQELLTIAERWEEKAHLCLEARQKHPPATLEAIIREAENIPVHLPNIQALKEALAKARAWIADVDEIQNGDHYPCLDDLEGLVAVGRDLPVGLEELRQLELQVLTAHSWREKASKTFLKKNS | not soluble
* MVTINNARKILQRVDTLPLYLHAYAFHLNMRLERVLPADLLDIASENNLRGVKIHVLDGERFSLGNMDDKELSAFGDKARRLNLDIHIETSASDKASIDEAVAIALKTGASSVRFYPRYEGNLRDVLSIIANDIAYVRETYQDSGLTFTIEQHEDLKSHELVSLVKESEMESLSLLFDFANMINANEHPIDALKTMAPHITQVHIKDALIVKEPGGLGHKACISGQGDMPFKALLTHLICLGDDEPQVTAYGLEEEVDYYAPAFRFEDEDDNPWIPYRQMSETPLPENHLLDARLRKEKEDAINQINHVRNVLQQIKQEANHLLNH | soluble
* MATSKILLYYAFTPLSDPKAVQLWQRELCESLNLRGRILISTHGINGTVGGDIDDCKAYIKKTREYPGFNRMQFKWSEGGAEDFPKLSVKVRDEIVAFGAPDELKVDENGVVGGGVHLKPQQVNELVEARGDEVVFFDGRNAMEAQIGKFKDAVVPDVETTHDFIAEIESGKYDDLKDKPVVTYCTGGIRCEILSSLMINRGFKEVYQIDGGIVRYGEQFGNKGLWEGSLYVFDKRMHMEFGEDYKEVGHCIHCDTPTNKFEHCLNEDDCRELVLMCPDCFANVETRHCKRERCAAIAADFAEQGIDPLVTS | not soluble
* MAHHHHHHMRRFCTARVSSYVKRAPLLLPRGGRRWRSGAGTTADGGGEKEYIADSFESTAGSNAYAAMELAAEARREIHELWLSAETALEREKRVQQVAALIEKYKLDPSTPREADVSRGLGDAFDRLLLLCLPLGKTDAKGTDNLERLMHLAGRNGRELSVRTIQHLFARTDSFAEALAVFYTMRRCHVAMNMEAYYSMLYSLQRLEEEGWGQHFRNEYEENGAPSEQAMDFIVKGISNALLPENKPWLGRVMFQDRNVPDRRYDTRDFDELDTAWTQRYKSGTPAGAH | not soluble

Ask: I'd like to know its soluble on expression in E. coli. The sequence in question is `MSLTNQAYPMALVSQDSLDSYIRSVNGYPMLSADEERELAERLHYKGDIDAAKGLILSHLRFVVHVARGYSGYGLPMADLVQEGNIGLMKAVKRFNPEMGVRLVSFAVHWIKAEIHEYVLRNWRIVKIATTKAQRKLFFNLRKSKKRLGWFNNGEVETVARELGVEPAEVREMESRLAAQDAAFEMSAEDDENGMAYTAPVLYLEDKHSDLADNLEAENWEAHTTQRLSMALASLDERSQHIVRARWLDDDNKTTLQDLAEMYGVSAERIRQLEKNAMRKLKEAVGEEGHHHHHH`
Reply: soluble
